Target: MetRS (C. parvum) (Cryptosporidium parvum, UniProt Q5CVN0)
Sequence (Q5CVN0 entry or part of it): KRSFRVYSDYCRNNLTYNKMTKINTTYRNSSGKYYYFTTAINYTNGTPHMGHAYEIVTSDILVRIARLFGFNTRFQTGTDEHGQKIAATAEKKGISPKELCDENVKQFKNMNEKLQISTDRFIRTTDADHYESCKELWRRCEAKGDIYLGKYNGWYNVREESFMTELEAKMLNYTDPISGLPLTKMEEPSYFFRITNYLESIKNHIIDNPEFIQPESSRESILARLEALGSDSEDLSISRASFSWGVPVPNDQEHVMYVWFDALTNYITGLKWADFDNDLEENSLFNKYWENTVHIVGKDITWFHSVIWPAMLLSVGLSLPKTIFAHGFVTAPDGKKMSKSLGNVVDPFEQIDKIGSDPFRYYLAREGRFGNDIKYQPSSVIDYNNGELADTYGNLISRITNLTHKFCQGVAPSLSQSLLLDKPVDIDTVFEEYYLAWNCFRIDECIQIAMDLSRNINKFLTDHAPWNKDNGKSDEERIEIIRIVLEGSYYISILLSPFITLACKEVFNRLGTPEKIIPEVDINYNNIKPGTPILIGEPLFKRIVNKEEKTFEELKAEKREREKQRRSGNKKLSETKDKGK
Assay: MetRS (C. parvum) enzyme inhibition
Type: biochemical
Conditions: read-out: (C) MetRS (C. parvum) IC50
Measure Name: pIC50
# pIC50 = -log10(concentration in molar units)

In one line, give reported pIC50 of the entry COc1cc(-c2cccc3nc(Cc4nc5nc(Br)ccc5[nH]4)cn23)c(Cl)cc1Cl [Compound 2146] .
7.03

In one line, give reported pIC50 of the entry CC(C)(N)Cn1c(Cc2ccc(Cl)cc2Cl)cn(Cc2nc3nc(Cl)ccc3[nH]2)c1=O [Compound 2212] .
7.34

In one line, give reported pIC50 of the entry CCn1c(Cc2ccc(Cl)cc2Cl)cn(Cc2nc3ccc(F)nc3[nH]2)c1=S [Compound 2103] .
6.76

In one line, give reported pIC50 of the entry O=C(c1cn(Cc2nc3ccc(Cl)nc3[nH]2)c(=O)[nH]1)c1ccc(Cl)cc1Cl [Compound 2201] .
7.14

In one line, give reported pIC50 of the entry COc1cc(Cl)c(-c2cccc3nc(Cc4nc5nc(F)ccc5[nH]4)cn23)cc1Cl [Compound 2133] .
6.45

In one line, give reported pIC50 of the entry Fc1ccc2[nH]c(Cc3cn4c(-c5ccc(Cl)cc5Cl)cccc4n3)nc2n1 [Compound 2135] .
7.25

In one line, give reported pIC50 of the entry COc1ccc(-c2cnc(N)c3nc(Cc4nc5nc(Cl)ccc5[nH]4)cn23)c(Cl)c1 [Compound 2175] .
7.38

In one line, give reported pIC50 of the entry Fc1ccc2nc(Cn3cc(Cc4ccc(Cl)cc4Cl)[nH]c3=S)[nH]c2n1 [Compound 2056] .
6.71

In one line, give reported pIC50 of the entry C[S+]([O-])c1nc(Cc2ccc(Cl)cc2Cl)cn1Cc1nc2nc(Cl)ccc2[nH]1 (stereo not drawn) [Compound 2110] .
7.01

In one line, give reported pIC50 of the entry COc1ccc(-c2cnc(NC(C)=O)c3nc(Cc4nc5nc(Cl)ccc5[nH]4)cn23)c(Cl)c1 [Compound 2186] .
7.31

In one line, give reported pIC50 of the entry CCNC(=O)Nc1ccc(-c2ccc(OC)cc2Cl)n2cc(Cc3nc4ccc(Cl)cc4[nH]3)nc12 [Compound 2182] .
7.38

----------
System: C. parvum
Test: C. parvum growth inhibition
Format: cell-based, Cryptosporidium parvum
Details: Cryptosporidium parvum; read-out: (J) C. parvum EC50
Measure Name: EC50 (µM)
Write the number in µM without appending the unit.

In one line, give reported EC50 of the entry COc1cc(-c2cccc3nc(Cc4nc5nc(Cl)ccc5[nH]4)cn23)c(Cl)cc1Cl .
1.68

In one line, give reported EC50 of the entry COc1ccc(-c2cccc3nc(Cc4nc5nc(Cl)ccc5[nH]4)cn23)c(Cl)c1 .
0.48

In one line, give reported EC50 of the entry O=c1n(Cc2nc3ccc(Cl)nc3[nH]2)cc(Cc2ccc(Cl)cc2Cl)n1CCO .
1.91

In one line, give reported EC50 of the entry COc1ccc(Cc2cn(Cc3nc4c(Cl)c(Cl)ccc4[nH]3)c(=O)n2CC(C)(C)O)c(Cl)c1 .
0.531

In one line, give reported EC50 of the entry C#CCn1c(Cc2ccc(Cl)cc2Cl)cn(Cc2nc3ccc(F)nc3[nH]2)c1=O .
0.834

In one line, give reported EC50 of the entry COc1cc(Cl)c(-c2nccc3nc(Cc4nc5nc(Cl)ccc5[nH]4)cn23)cc1OC .
0.359

In one line, give reported EC50 of the entry COc1ccc(-c2ccc(NC(C)=O)c3nc(Cc4nc5nc(Br)ccc5[nH]4)cn23)c(Cl)c1 .
0.719

In one line, give reported EC50 of the entry COCCn1c(Cc2ccc(Cl)cc2Cl)cn(Cc2nc3ccc(F)nc3[nH]2)c1=O .
0.475

In one line, give reported EC50 of the entry COc1ccc(-c2cccc3c2CN(Cc2nc4nc(Cl)ccc4[nH]2)C3=O)c(Cl)c1 .
0.211

In one line, give reported EC50 of the entry CCn1c(C(=O)c2ccc(OC)cc2Cl)cn(Cc2nc3ccc(Cl)nc3[nH]2)c1=O .
0.062

In one line, give reported EC50 of the entry CCn1c(Cc2ccc(Cl)cc2Cl)cn(Cc2nc3ccc(Br)nc3[nH]2)c1=O .
0.598

In one line, give reported EC50 of the entry C[S+]([O-])c1nc(Cc2ccc(Cl)cc2Cl)cn1Cc1nc2nc(Cl)ccc2[nH]1 (stereo not shown) .
1.27

In one line, give reported EC50 of the entry COc1ccc(Cc2cn(Cc3nc4nc(Cl)ccc4[nH]3)c(=O)n2CC(F)F)c(Cl)c1 .
0.188

In one line, give reported EC50 of the entry CCn1c(Cc2ccc(OC)cc2Cl)cn(Cc2nc3nc(Cl)ccc3[nH]2)c1=O .
0.038

In one line, give reported EC50 of the entry COc1ccc(-c2cnc(N3CCN(C(C)=O)CC3)c3nc(Cc4nc5nc(Cl)ccc5[nH]4)cn23)c(Cl)c1 .
0.243

In one line, give reported EC50 of the entry CC(C)n1c(Cc2ccc(Cl)cc2Cl)cn(Cc2nc3ccc(F)nc3[nH]2)c1=O .
0.61

In one line, give reported EC50 of the entry CCn1c(Cc2ccc(Cl)cc2Cl)cn(Cc2cc3nc(F)ccc3[nH]2)c1=O .
0.62

----------
System: T. cruzi
Assay: T. cruzi growth inhibition
Type: cell-based, Trypanosoma cruzi
Settings: read-out: (E) T. cruzi EC50
Measure Name: EC50

In one line, give reported EC50 of the entry CCOC(=O)Cn1c(C(=O)c2ccc(Cl)cc2Cl)cn(Cc2nc3ccc(Cl)nc3[nH]2)c1=O .
0.0254 µM

In one line, give reported EC50 of the entry COc1ccc(-c2ccc(NC(C)=O)c3nc(Cc4nc5nc(Br)ccc5[nH]4)cn23)c(Cl)c1 .
0.0232 µM

In one line, give reported EC50 of the entry CCn1c(C(=O)c2ccc(OC)cc2Cl)cn(Cc2nc3ccc(Cl)nc3[nH]2)c1=O .
0.00744 µM

In one line, give reported EC50 of the entry COc1ccc(Cc2cn(Cc3nc4nc(Cl)ccc4[nH]3)c(=O)n2CC(F)F)c(Cl)c1 .
0.00596 µM

In one line, give reported EC50 of the entry COc1cc(-c2cccc3nc(Cc4nc5nc(F)ccc5[nH]4)cn23)c(Cl)cc1Cl .
0.082 µM

In one line, give reported EC50 of the entry CCCn1c(Cc2ccc(Cl)cc2Cl)cn(Cc2nc3nc(F)ccc3[nH]2)c1=O .
0.176 µM

In one line, give reported EC50 of the entry CCn1c(Cc2ccc(OC)cc2Cl)cn(Cc2nc3nc(F)ccc3[nH]2)c1=O .
0.0232 µM

In one line, give reported EC50 of the entry CCCn1c(Cc2ccc(Cl)cc2Cl)cn(Cc2nc3ccc(Cl)nc3[nH]2)c1=O .
0.0225 µM

In one line, give reported EC50 of the entry COc1ccc(-c2cnc(N3CCN(C(C)=O)CC3)c3nc(Cc4nc5nc(Cl)ccc5[nH]4)cn23)c(Cl)c1 .
0.0909 µM

In one line, give reported EC50 of the entry CCn1c(Cc2ccc(OC)cc2Cl)cn(Cc2nc3nc(Cl)ccc3[nH]2)c1=O .
0.00581 µM

In one line, give reported EC50 of the entry COc1ccc(-c2cccc3c2CN(Cc2nc4nc(Cl)ccc4[nH]2)C3=O)c(Cl)c1 .
0.0396 µM

In one line, give reported EC50 of the entry COc1ccc(-c2nccc3nc(Cc4nc5ccc(Cl)nc5[nH]4)cn23)c(Cl)c1 .
0.0772 µM

In one line, give reported EC50 of the entry COc1cc(Cl)c(-c2cccc3nc(Cc4nc5nc(F)ccc5[nH]4)cn23)cc1OC .
0.129 µM

In one line, give reported EC50 of the entry COc1ccc(-c2nccn3c(=O)n(Cc4nc5nc(Cl)ccc5[nH]4)cc23)c(Cl)c1 .
0.114 µM

In one line, give reported EC50 of the entry COc1cc(Cl)c(-c2cccc3nc(Cc4nc5nc(Cl)ccc5[nH]4)cn23)cc1OC .
0.00779 µM

In one line, give reported EC50 of the entry COc1cc(-c2cccc3nc(Cc4nc5nc(Cl)ccc5[nH]4)cn23)c(Cl)cc1Cl .
0.0108 µM

----------
Target: MetRS (C. parvum) (Cryptosporidium parvum)
Assay: MetRS (C. parvum) enzyme inhibition
Format: biochemical
Conditions: read-out: (C) MetRS (C. parvum) IC50
Assignment: determine reported IC50 for the given compounds.
Write the number in nM without appending the unit.

In one line, give reported IC50 of the entry COC(=O)Nc1ccc(-c2ccc(OC)cc2Cl)n2cc(Cc3nc4ccc(Cl)cc4[nH]3)nc12 [Compound 2181] .
52.9

In one line, give reported IC50 of the entry CCn1c(Cc2ccc(Cl)cc2Cl)cn(Cc2nc3ccc(C)nc3[nH]2)c1=O [Compound 2092] .
47.5

In one line, give reported IC50 of the entry COc1ccc(-c2ccc(N)c3nc(Cc4nc5nc(Cl)ccc5[nH]4)cn23)c(Cl)c1 [Compound 2171] .
75.3

In one line, give reported IC50 of the entry COc1ccc(-c2cccc3c2CN(Cc2nc4nc(F)ccc4[nH]2)CC3)c(Cl)c1 [Compound 2167] .
505
